metric: melting point

Record excerpt, results attached:
What does the data say about its melting point? Entry: Cl.c1ccc2c(OCCN3CCCCC3)cc(-c3ccncc3)nc2c1 [Compound 34b]
183.5 to 185 °C

What does the data say about its melting point? Entry: CCCOc1ccc(-c2cc(OCCN(CC)CC)c3ccccc3n2)cn1.Cl [Compound 31a]
188 to 190 °C

What does the data say about its melting point? Entry: CCN(CC)CCOc1cc(-c2ccsc2)nc2ccccc12
66 to 67 °C

What does the data say about its melting point? Entry: CCN(CC)CCOc1cc(-c2cccs2)nc2ccccc12
84 to 86 °C

What does the data say about its melting point? Entry: CCN(CC)CCOc1cc(-c2ccccn2)nc2ccccc12.Cl [Compound 32a]
173 to 174 °C

Next:
What does the data say about its melting point? Entry: CCN(CC)CCOc1cc(-c2ccncc2)nc2ccccc12 [Compound 34a]
73.5 to 74 °C

What does the data say about its melting point? Entry: CCN(CC)CCOc1cc(-c2ccc(Cl)s2)nc2ccccc12.Cl [Compound 37a]
189 to 191 °C

What does the data say about its melting point? Entry: CCN(CC)CCOc1cc(-c2cccnc2)nc2ccccc12.Cl [Compound 33a]
181 to 182 °C

What does the data say about its melting point? Entry: Cl.c1csc(-c2cc(OCCN3CCCCC3)c3ccccc3n2)c1 [Compound 35b]
208 to 209.5 °C

What does the data say about its melting point? Entry: c1ccc2c(OCCN3CCCCC3)cc(-c3ccsc3)nc2c1 [Compound 36b]
109.5 to 111 °C
